# credit: patent US20210246166A1

# maps each entry to its human MASP1 IC50
# measurement target: T1, recombinant human MASP1 active protease (amino acids 297-699, C-terminal His Tag) (human, UniProt P48740 297-699)
# T1 sequence: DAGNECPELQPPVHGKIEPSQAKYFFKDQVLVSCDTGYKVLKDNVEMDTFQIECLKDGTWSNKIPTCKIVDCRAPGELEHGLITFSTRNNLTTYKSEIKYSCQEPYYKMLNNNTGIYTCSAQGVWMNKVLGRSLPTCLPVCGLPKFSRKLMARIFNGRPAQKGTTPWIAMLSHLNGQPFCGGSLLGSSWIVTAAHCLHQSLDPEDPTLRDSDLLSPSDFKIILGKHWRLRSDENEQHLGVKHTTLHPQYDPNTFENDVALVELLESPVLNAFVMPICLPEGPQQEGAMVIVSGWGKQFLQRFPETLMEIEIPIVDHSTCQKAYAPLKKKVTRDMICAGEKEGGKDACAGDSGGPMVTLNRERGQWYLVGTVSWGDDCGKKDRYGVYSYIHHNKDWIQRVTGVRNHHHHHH
# test method notes: cell-based or functional assay
Bridge positions count the residues as written; N and C are the ends. Square brackets hold non-standard residues; d marks the D form. Primed or numbered codes have the meaning given here. Ends that are not written are not given here. * marks the point of attachment. Tranexamic″ = tranexamic acid, NC[C@H]1CC[C@@H](C(=O)*)CC1; Pro(trans-4-F) = O=C(O)[C@@H]1C[C@@H](F)CN1; Pro(4-spirocPr) = O=C(O)[C@@H]1CC2(CC2)CN1; Oic = O=C(O)[C@@H]1C[C@@H]2CCCC[C@@H]2N1; PEG6 = NCCOCCOCCOCCOCCOCCOCCC(=O)O; tBuAla = CC(C)(C)C[C@H](N)C(=O)O; Pen = CC(C)(S)[C@H](N)C(=O)O; Isovaleryl = CC(C)CC(=O)*; NMeC = CN[C@@H](CS)C(=O)O; Sar = CNCC(=O)O
Give the quantity in nM, number only.

Worked cases, human MASP1 IC50 given:
[Sar]ICSRS[tBuAla]P[Pro(4-spirocPr)]I[Pen]IP-NH2 (disulfide 3-11; N-terminus assumed; SMILES CC[C@H](C)[C@H](NC(=O)CNC)C(=O)N[C@H]1CSSC(C)(C)[C@@H](C(=O)N[C@H](C(=O)N2CCC[C@H]2C(N)=O)[C@@H](C)CC)NC(=O)[C@H]([C@@H](C)CC)NC(=O)[C@@H]2CC3(CC3)CN2C(=O)[C@@H]2CCCN2C(=O)[C@H](CC(C)(C)C)NC(=O)[C@H](CO)NC(=O)[C@H](CCCNC(=N)N)NC(=O)[C@H](CO)NC1=O) ... 3.2
[Sar]ICSRSLP[Pro(trans-4-F)]ICIPD-OH (disulfide 3-11; N-terminus assumed; SMILES CC[C@H](C)[C@H](NC(=O)CNC)C(=O)N[C@H]1CSSC[C@@H](C(=O)N[C@H](C(=O)N2CCC[C@H]2C(=O)N[C@@H](CC(=O)O)C(=O)O)[C@@H](C)CC)NC(=O)[C@H]([C@@H](C)CC)NC(=O)[C@@H]2C[C@@H](F)CN2C(=O)[C@@H]2CCCN2C(=O)[C@H](CC(C)C)NC(=O)[C@H](CO)NC(=O)[C@H](CCCNC(=N)N)NC(=O)[C@H](CO)NC1=O) [Example 390: ((N-Me)G)-IC+SRSLP-((trans-4-Fluoro)P)-IC+IPD-OH] ... 47
[(2S,3S)‑2‑((3R)-3-Amino-2-oxopyrrolidin-1-yl)‑3‑methylpentanoic acid]CSRSLPPICIAD-OH (disulfide 2-10) ... 26

Ask | Input {Tranexamic″}-ICSRS[tBuAla]PPI[Pen]IP-{PEG6-NH2} (disulfide 2-10; SMILES CC[C@H](C)[C@@H]1NC(=O)[C@@H]2CCCN2C(=O)[C@@H]2CCCN2C(=O)[C@H](CC(C)(C)C)NC(=O)[C@H](CO)NC(=O)[C@H](CCCNC(=N)N)NC(=O)[C@H](CO)NC(=O)[C@@H](NC(=O)[C@@H](NC(=O)[C@H]2CC[C@@H](CN)CC2)[C@@H](C)CC)CSSC(C)(C)[C@@H](C(=O)N[C@H](C(=O)N2CCC[C@H]2C(=O)NCCOCCOCCOCCOCCOCCOCCC(N)=O)[C@@H](C)CC)NC1=O) [Example 425: (Tranexamic)-IC+SRS-((tBu)A)-PPI-(Pen)+IP-(PEG5(22 atoms))-NH2] , output reported human MASP1 IC50.
Reply | 7.7

Ask | Input {2‑Hydroxyisobutyric}-ICSRS[tBuAla]PPICIPD-NH2 (disulfide 2-10) [Example 392: (2-Hydroxyisobutyric)-IC+SRS-((tBu)A)-PPIC+IPD-NH2] , output reported human MASP1 IC50.
Reply | 47

Ask | Input {Tetrahydro‑2H‑pyran‑3‑ylacetic acid}-ICSRSLP[Oic]I[Pen]IP-NH2 (disulfide 2-10) [Example 304: (Tetrahydro-2H-pyran-3-ylacetic acid)-IC+SRSLP-(Oic)-I-(Pen)+IP-NH2] , output reported human MASP1 IC50.
Reply | 19

Ask | Input [Sar]ICSRSLP[Oic]I[Pen]IP-NH2 (disulfide 3-11; also: citrate salt) [Example 376: ((N-Me)G)-IC+SRSLP-(Oic)-I-(Pen)+IP-NH2 (Citrate)] , output reported human MASP1 IC50.
Reply | 1.1

Ask | Input Pivalic-ICSRS[tBuAla]PPI[NMeC]I-NH2 (disulfide 2-10) [Example 398: (Pivalic)-IC+SRS-((tBu)A)-PPI-((N-Me)C)+I-NH2] , output reported human MASP1 IC50.
Reply | 54

Ask | Input ICSRS[tBuAla]PPI[Pen]I-NH2 (disulfide 2-10; N-terminus assumed; SMILES CC[C@H](C)[C@H](N)C(=O)N[C@H]1CSSC(C)(C)[C@@H](C(=O)N[C@H](C(N)=O)[C@@H](C)CC)NC(=O)[C@H]([C@@H](C)CC)NC(=O)[C@@H]2CCCN2C(=O)[C@@H]2CCCN2C(=O)[C@H](CC(C)(C)C)NC(=O)[C@H](CO)NC(=O)[C@H](CCCNC(=N)N)NC(=O)[C@H](CO)NC1=O) [Example 345: IC+SRS-((tBu)A)-PPI-(Pen)+I-NH2] , output reported human MASP1 IC50.
Reply | 27

Ask | Input ICSRSLP[Oic]I[Pen]IPE-OH (disulfide 2-10; N-terminus assumed; SMILES CC[C@H](C)[C@H](N)C(=O)N[C@H]1CSSC(C)(C)[C@@H](C(=O)N[C@H](C(=O)N2CCC[C@H]2C(=O)N[C@@H](CCC(=O)O)C(=O)O)[C@@H](C)CC)NC(=O)[C@H]([C@@H](C)CC)NC(=O)[C@@H]2C[C@@H]3CCCC[C@@H]3N2C(=O)[C@@H]2CCCN2C(=O)[C@H](CC(C)C)NC(=O)[C@H](CO)NC(=O)[C@H](CCCNC(=N)N)NC(=O)[C@H](CO)NC1=O) [Example 369: IC+SRSLP-(Oic)-I-(Pen)+IPE-OH] , output reported human MASP1 IC50.
Reply | 35

Ask | Input Isovaleryl-ICSRS[tBuAla]PPI[NMeC]I-NH2 (disulfide 2-10; SMILES CC[C@H](C)[C@H](NC(=O)[C@@H]1CSSC[C@H](NC(=O)[C@@H](NC(=O)CC(C)C)[C@@H](C)CC)C(=O)N[C@@H](CO)C(=O)N[C@@H](CCCNC(=N)N)C(=O)N[C@@H](CO)C(=O)N[C@@H](CC(C)(C)C)C(=O)N2CCC[C@H]2C(=O)N2CCC[C@H]2C(=O)N[C@@H]([C@@H](C)CC)C(=O)N1C)C(N)=O) [Example 358: (Isovaleric)-IC+SRS-((tBu)A)-PPI-((N-Me)C)+I-NH2] , output reported human MASP1 IC50.
Reply | 31
